All figures here come from the kinase profiling compilation of Christmann-Franck et al. (2016).

- test.target: MAP2K2 (human) (UniProt P36507)
- Sequence (P36507 whole entry, looked up): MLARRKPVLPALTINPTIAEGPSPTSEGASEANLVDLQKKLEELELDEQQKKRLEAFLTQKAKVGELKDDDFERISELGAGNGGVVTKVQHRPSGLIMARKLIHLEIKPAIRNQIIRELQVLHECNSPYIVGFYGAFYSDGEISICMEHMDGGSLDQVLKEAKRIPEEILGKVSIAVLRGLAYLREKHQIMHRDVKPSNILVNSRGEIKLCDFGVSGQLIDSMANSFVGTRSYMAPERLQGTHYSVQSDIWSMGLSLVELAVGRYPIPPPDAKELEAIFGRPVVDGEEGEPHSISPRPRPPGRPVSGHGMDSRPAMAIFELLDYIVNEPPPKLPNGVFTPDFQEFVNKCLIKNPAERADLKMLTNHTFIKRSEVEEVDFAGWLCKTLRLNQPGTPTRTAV
- assay.method.text: radiometric filter-binding kinase assay
- condition.set: compound 1.0 µM
outcome.measure: residual activity (%)
Give a bare numeral; the unit % is implied.

Previously resolved entries follow.
compound="COc1cc(O)c2c(c1)[C@H]1OC1C[C@H](O)[C@H](O)C(=O)/C=C\\C[C@H](C)OC2=O (stereo partly specified)" test_target="MAP2K2 (human) (UniProt P36507)" readout_value=9
compound="O=C(NOCC(O)CO)c1ccc(F)c(F)c1Nc1ccc(I)cc1Cl (stereo unspecified)" test_target="MAP2K2 (human) (UniProt P36507)" readout_value=55
compound=CN(C)C/C=C/C(=O)Nc1cccc(C(=O)Nc2ccc(Nc3nccc(-c4cccnc4)n3)cc2)c1 test_target="MAP2K2 (human) (UniProt P36507)" readout_value=102
compound=NC(=O)c1ccc(-c2ccc(Oc3cncc4sc(-c5nn[nH]n5)cc34)cc2)cc1 test_target="MAP2K2 (human) (UniProt P36507)" readout_value=81
compound=CCNc1nc(Nc2cc(F)c(C(=O)N3CCOCC3)cc2OC)ncc1C(F)(F)F test_target="MAP2K2 (human) (UniProt P36507)" readout_value=93
compound="Nc1cccc2c1CN(C1CCC(=O)NC1=O)C2=O (stereo unspecified)" test_target="MAP2K2 (human) (UniProt P36507)" readout_value=83
compound=O=C(Nc1nc2cc(C(F)(F)F)cc(NC3CC3)n2n1)c1cccnc1 test_target="MAP2K2 (human) (UniProt P36507)" readout_value=69
compound=O=C(NCCCNc1nc(Nc2cccc(CN3CCOCC3)c2)ncc1C1CC1)C1CCC1 test_target="MAP2K2 (human) (UniProt P36507)" readout_value=75
compound=C=CC(=O)N1CCC[C@@H](n2nc(-c3ccc(Oc4ccccc4)cc3)c3c(N)ncnc32)C1 test_target="MAP2K2 (human) (UniProt P36507)" readout_value=94
compound=COc1ccc(-n2ncc3cnc(Nc4cc(OC)c(OC)c(OCCCN5CCN(C)CC5)c4)nc32)cc1 test_target="MAP2K2 (human) (UniProt P36507)" readout_value=28

residual activity for NC(=O)c1c(NC(=O)C2CC2)sc2c1CCCC2 ? 93

Further, for Cc1ccc(Sc2cnc(Nc3cccc(Br)n3)s2)cc1C(=O)N1CCN(C(=O)CN)CC1 ? 77

Further, for CC(C)(C#N)c1ccc(N2C(=O)OCc3cnc4ccc(-c5cnc6ccccc6c5)cc4c32)cc1 ? 87

Further, for O=C(N[C@@H](COc1ccc2[nH]c(=O)[nH]c2c1)c1ccccc1)c1cccn(Cc2ccc(F)c(F)c2)c1=O ? 124
